# Tested on: ZIKV Paraiba/2015
# method_summary: Viral inhibition assay, post-infection treatment, Vero cells
# Type: cell-based, Zika virus
# measurement_setup: post-treatment, Paraiba/2015, Vero
Counter-ions that a name gives are not always drawn.
experimental_readout: inhibitor category based on SI-XTT

INSERT INTO measurements (compound, value_reported) VALUES
  ('CCCCCC[C@H]1C(=O)O[C@H](C)[C@H](NC(=O)c2cccc(NC=O)c2O)C(=O)O[C@@H](C)[C@@H]1OC(=O)CC(C)C [Antimycin A]', 'potent'),
  ('COC1=CC(c2cc3ccccc3[nH]2)=N/C1=C\c1[nH]c(C)cc1C [Obatoclax, Obatoclax mesylate]', 'potent'),
  ('NCC(=O)Nc1ccc(-n2nc(C(F)(F)F)cc2-c2ccc3c(ccc4ccccc43)c2)cc1 [OSU-03012]', 'weak'),
  ('NC(=O)c1[nH]nc([C@@H]2O[C@H](CO)[C@@H](O)[C@H]2O)c1O [Pyrazofurin]', 'weak');
